Reported Emax values for the following molecules.
- Target: F508delCFTR (Homo sapiens, UniProt P13569, DEL508-508)
- Construct: expressed in transfected cells; host or cells: CFBE41o- human lung-derived epithelial cells (CFBE4lo-F508delCFTR-HRP), doxycycline-inducible
- Sequence (P13569 with tags, fused parts or gaps DEL508-508): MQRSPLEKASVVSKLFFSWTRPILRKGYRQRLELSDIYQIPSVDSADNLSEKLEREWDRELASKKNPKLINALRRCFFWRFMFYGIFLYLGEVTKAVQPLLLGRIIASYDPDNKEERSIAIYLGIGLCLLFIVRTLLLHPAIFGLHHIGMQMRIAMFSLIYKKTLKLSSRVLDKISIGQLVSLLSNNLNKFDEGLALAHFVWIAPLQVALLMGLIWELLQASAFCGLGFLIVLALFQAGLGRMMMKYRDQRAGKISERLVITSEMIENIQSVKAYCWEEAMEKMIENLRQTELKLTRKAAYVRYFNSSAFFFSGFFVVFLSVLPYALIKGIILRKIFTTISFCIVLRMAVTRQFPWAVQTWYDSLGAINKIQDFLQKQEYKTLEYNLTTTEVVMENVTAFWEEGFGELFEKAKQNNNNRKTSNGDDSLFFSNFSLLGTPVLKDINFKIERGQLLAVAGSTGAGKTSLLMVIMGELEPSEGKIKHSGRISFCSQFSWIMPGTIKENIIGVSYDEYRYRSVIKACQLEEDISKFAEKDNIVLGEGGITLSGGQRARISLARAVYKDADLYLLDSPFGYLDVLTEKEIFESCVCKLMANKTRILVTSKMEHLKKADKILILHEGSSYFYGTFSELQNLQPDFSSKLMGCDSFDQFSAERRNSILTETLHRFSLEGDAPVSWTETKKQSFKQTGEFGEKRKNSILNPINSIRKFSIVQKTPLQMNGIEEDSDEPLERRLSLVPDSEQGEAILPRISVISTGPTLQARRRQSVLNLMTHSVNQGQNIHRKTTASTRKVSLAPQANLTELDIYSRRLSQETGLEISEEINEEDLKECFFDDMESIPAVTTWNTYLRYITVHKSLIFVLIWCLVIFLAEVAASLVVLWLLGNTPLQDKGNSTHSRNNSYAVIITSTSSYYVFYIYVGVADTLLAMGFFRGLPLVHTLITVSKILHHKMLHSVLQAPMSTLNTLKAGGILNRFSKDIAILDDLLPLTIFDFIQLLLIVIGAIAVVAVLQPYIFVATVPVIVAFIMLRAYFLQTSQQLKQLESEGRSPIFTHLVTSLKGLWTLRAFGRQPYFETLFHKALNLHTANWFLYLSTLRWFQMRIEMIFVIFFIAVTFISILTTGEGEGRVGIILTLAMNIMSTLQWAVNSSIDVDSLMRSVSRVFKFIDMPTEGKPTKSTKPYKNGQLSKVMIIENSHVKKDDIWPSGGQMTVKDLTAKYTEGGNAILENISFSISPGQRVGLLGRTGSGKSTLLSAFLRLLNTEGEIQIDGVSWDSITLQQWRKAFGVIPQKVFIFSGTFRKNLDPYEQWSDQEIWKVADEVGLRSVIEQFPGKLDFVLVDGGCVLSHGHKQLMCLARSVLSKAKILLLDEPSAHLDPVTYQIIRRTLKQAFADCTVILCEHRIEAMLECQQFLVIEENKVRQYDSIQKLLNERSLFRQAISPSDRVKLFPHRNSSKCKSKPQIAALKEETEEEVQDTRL
- Test method notes: Cell Surface Expression-Horse Radish Peroxidase (CSE-HRP) Assay;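 further: percent of the 2 µM on-plate positive control corrector response above DMSO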
- Format: cell-based
- Condition notes: CSE-HRP; without co-corrector; maximum at any tested concentration, normalized to on-plate positive control; read-out: Maximum % activity (without co-corrector)
- Description: Cell Surface Expression-Horse Radish Peroxidase (CSE-HRP) Assay The development was achieved by expressing the F508delCFTR mutation along with a horseradish peroxidase (HRP) in the fourth exofacial loop, and then measuring the HRP activity using luminescence readout from these cells, CFBE4lo-F508delCFTR-HRP, that were incubated overnight with the test corrector compounds, either without or with the co-corrector. […] The raw counts from the experiment were analyzed using Accelrys® Assay Explorer v3.3. […]

1. COc1ncc(C(C)C)cc1CN[C@H]1[C@H](C(C)(C)C)[C@@H](C(=O)O)N(C(=O)C2CCCCC2)[C@H]1c1ccccc1 [II-157]; > 200%
2. COc1ccc(C(C)C)cc1CN[C@H]1[C@H](C(C)(C)OC)[C@@H](C(=O)O)N(C(=O)C2CCCCC2)[C@H]1c1ccccc1 [II-258]; > 200%
3. COc1ccc(-c2cccc(F)c2F)cc1CN[C@H]1[C@H](C(C)(C)C)[C@@H](C(=O)O)N(C(=O)C2CCCCC2)[C@H]1c1ccccc1 [II-286]; > 200%
4. COc1ccc(C(C)(C)C)cc1CN[C@H]1[C@H](C(C)(C)C)[C@@H](C(=O)O)N(C(=O)Cc2ccccc2F)[C@H]1c1ccccc1 [II-206]; > 200%
5. COc1ccc(C(C)(C)C)cc1CN[C@H]1[C@H](C(C)(C)C)[C@@H](C(=O)O)N(C(=O)C2CC2(C)C)[C@H]1c1ccccc1 (stereo partly drawn) [II-309]; > 200%

# input molecule: COc1ccc(C(F)(F)F)cc1CN[C@@H]1[C@@H](C(C)(C)C)[C@H](C(=O)O)N(C(=O)C2CCOC(C)(C)C2)[C@@H]1c1ccccc1N(C)C (mixture of isomers) [II-24] ; wanted: its Emax
> 200%

Requested field: Emax. Item: COc1ccc(C(C)(C)C)cc1CN[C@H]1[C@H](C(C)(C)C)[C@@H](C(=O)O)N(C(=O)C2CCCCC2)[C@H]1c1ccccc1O [Example I-310]
> 200%

###

- Target: F508delCFTR (Homo sapiens, UniProt P13569, DEL508-508)
- Construct: expressed in transfected cells; host or cells: CFBE41o- human lung-derived epithelial cells (CFBE4lo-F508delCFTR-HRP), doxycycline-inducible
- Test method notes: Cell Surface Expression-Horse Radish Peroxidase (CSE-HRP) Assay;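 further: percent of the 2 µM on-plate positive control corrector response above DMSO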
- Assay type: cell-based
- Condition notes: test compound without co-corrector; maximum at any tested concentration, normalized to on-plate positive control; read-out: Maximum % activity (without co-corrector)
Quantity: Emax

1) COc1ccc(CN[C@@H]2[C@@H](C(C)(C)C)[C@H](C(=O)O)N(C(=O)OC(C)C)[C@@H]2c2ccccc2)c(OC)c1 (racemic); < 100%
2) COc1cccc([C@H]2[C@@H](Nc3cccc(OC(F)F)n3)[C@H](C(C)(C)C)[C@@H](C(=O)O)N2C(=O)C2(C)CCCOC2)n1 (mixture of isomers); < 100%
3) COc1ccc(C2(C)CCC2)cc1CN[C@H]1[C@H](C(C)(C)C)[C@@H](C(=O)O)N(C(=O)[C@@H]2CCCCO2)[C@H]1c1cccnc1OC; > 200%
4) COc1ncc(C2CCC2)cc1CN[C@H]1[C@H](C(C)(C)C)[C@@H](C(=O)O)N(C(=O)[C@@H]2CCC[C@@H](F)C2)[C@H]1c1ccccc1; > 200%
5) COc1cccc(CN[C@@H]2[C@@H](C(C)(C)C)[C@H](C(=O)O)N(C(=O)C3CCCCC3)[C@@H]2c2ccccc2)c1 (racemic); < 100%
6) COc1ccc(OC(F)(F)F)cc1CN[C@H]1[C@H](C(C)(C)C)[C@@H](C(=O)O)N(C(=O)OC(C)C)[C@H]1c1ccccc1; > 200%
7) CCCOC(=O)N1[C@H](C(=O)O)[C@@H](C(C)(C)C)[C@H](NCc2cc(C(C)(C)C)ccc2OC)[C@@H]1c1ccccc1; > 200%
8) COc1ccc2c(C)cc(N[C@H]3[C@H](C(C)(C)C)[C@@H](C(=O)O)N(C(=O)C4CCCCC4)[C@H]3c3ccccc3)nc2c1; < 100%

I'd like to know its Emax. The molecule in question is "COc1ccc(C2(C)CCC2)cc1CN[C@H]1[C@H](C(C)(C)C)[C@@H](C(=O)O)N(C(=O)C2CCCCC2)[C@H]1c1ccccc1"
> 200%

Endpoint output: Emax of "COc1ccc(C23CC(C2)C3)cc1CN[C@H]1[C@H](C(C)(C)C)[C@@H](C(=O)O)N(C(=O)OC(C)C)[C@H]1c1ccccc1C(C)C" . Value?
> 200%

Report Emax for COc1ccc(C(C)(C)C)cc1CN[C@H]1[C@H](C(C)(C)C)[C@@H](C(=O)O)N(C(=O)[C@H]2CCC[C@H](OC)C2)[C@H]1c1cccnc1N(C)C (relative stereo) please.
> 200%

Dear colleague, I am looking for the recorded Emax of the following molecule: COc1ccc(C(C)(C)C)cc1CN[C@H]1[C@H](C(C)(C)C)[C@@H](C(=O)O)N(C(=O)C2CCCCO2)[C@H]1c1cccnc1OC(F)F (single isomer, unassigned)
100 to 200%

Quick one: Emax for "COc1ccc(Cl)cc1CN[C@H]1[C@H](C(C)(C)C)[C@@H](C(=O)O)N(C(=O)OC(C)C)[C@H]1c1cccnc1N(C)C" ?
100 to 200%

Look up Emax for this molecule: CC(C)(C)[C@@H]1[C@@H](NCc2cc(C(F)(F)F)ccc2OCCOC(F)(F)F)[C@@H](c2ccccc2)N(C(=O)C2CCCCC2)[C@H]1C(=O)O (racemic)
< 100%
